Data origin, for the record: patent US9145415B2

Listing of entries alongside the reported IC50.
measuredTarget: human FLT3 protein (FLT3 (WT)) (Homo sapiens, UniProt P36888)
Construct: human FLT3 protein (intracellular region, 564 to 993 aa); GST; purchased Carna Biosciences; host or cells: baculovirus expression system
methodDescription: FLT3 inhibition test (FLT3 enzyme inhibition, time-resolved fluorescence of substrate peptide phosphorylation)
Format: biochemical
recordedConditions: FLT3 (WT); read-out: FLT3 (WT) enzyme inhibition activity

Here is how some molecules turned out for IC50.
1. CCCNc1nc(Nc2ccc3nc(C)ccc3c2)ncc1C#CCCCNC(=O)[C@H](C)N(C)C(=O)/C=C/CN(C)C; 10 to 100 nM
2. C[C@@H](C(=O)N[C@H]1CCC[C@@H](C#Cc2cnc(Nc3cccc(C#N)c3)nc2NC2CC2)C1)N(C)C(=O)/C=C/CN(C)C; < 10 nM

The recorded IC50 for CCCNc1nc(Nc2cncc(Cl)c2)ncc1C#CCCCNC(=O)[C@H](C)N(C)C(=O)/C=C/CN(C)C is < 10 nM

// IC50 lookup, molecule = CNc1nc(Nc2ccc(OC)c(F)c2)ncc1C#C[C@@H]1CCC[C@H](NC(=O)[C@H](C)N(C)C(=O)/C=C/CN(C)C)C1 , result: < 10 nM

Quick note, IC50 for CNc1nc(Nc2ccc(F)cc2)ncc1C#CCCCNC(=O)[C@H](C)N(C)C(=O)/C=C/CN(C)C landed at < 10 nM

// IC50 lookup, molecule = CCCNc1nc(NC)ncc1C#C[C@@H]1CCC[C@H](NC(=O)[C@H](C)N(C)C(=O)/C=C/CN(C)C)C1 , result: < 10 nM

Short answer for CCCNc1nc(Nc2ccc(-n3cccn3)cc2)ncc1C#CCCCNC(=O)[C@H](C)N(C)C(=O)/C=C/CN(C)C : IC50 was < 10 nM

// field: IC50; key: CCCNc1nc(Nc2cc(F)c3c(c2)c(N(C)C)nn3C)ncc1C#CCCCNC(=O)[C@H](C)N(C)C(=O)/C=C/CN(C)C ; value = 10 to 100 nM

# IC50 of CCCNc1nc(Nc2ccc3cn[nH]c3c2)ncc1C#CCCCNC(=O)[C@H](C)N(C)C(=O)/C=C/CN(C)C = < 10 nM

====

measuredTarget: human FLT3 protein (FLT3 (WT)) (Homo sapiens)
Construct: human FLT3 protein (intracellular region, 564 to 993 aa); GST; purchased Carna Biosciences; host or cells: baculovirus expression system
methodDescription: FLT3 inhibition test (FLT3 enzyme inhibition, time-resolved fluorescence of substrate peptide phosphorylation)
Assay type: biochemical
recordedConditions: GST-fused human FLT3 (564 to 993 aa), ATP 50 μM; read-out: FLT3 (WT) enzyme inhibition activity
pIC50: −log10 of the molar value.
# reported pIC50; entries follow

Examples with answers:
1) COCCCNc1nc(Nc2cccc(F)c2)ncc1C#C[C@H]1C[C@@H](NC(=O)[C@H](C)N(C)C(=O)/C=C/CN(C)C)C1 [Compound 15-15]; > 8.00
2) CCCNc1nc(Nc2ccc(C(N)=O)cc2)ncc1C(=O)Nc1cccc(NC(=O)[C@H](C)N(C)C(=O)/C=C/CN2CC(O)C2)c1 [Compound 4-5]; > 8.00

Proceed to the following item.
Record CCNc1nc(Nc2ccc3cnn(C)c3c2)ncc1C#CCCCNC(=O)[C@H](C)N(C)C(=O)/C=C/CN(C)C [Compound 10-57] / human FLT3 protein (FLT3 (WT)) (Homo sapiens), pIC50 recorded as > 8.00

====

measuredTarget: human FLT3 protein (FLT3 (WT)) (Homo sapiens, UniProt P36888)
Construct: human FLT3 protein (intracellular region, 564 to 993 aa); GST; purchased Carna Biosciences; host or cells: baculovirus expression system
Sequence (P36888 564-993): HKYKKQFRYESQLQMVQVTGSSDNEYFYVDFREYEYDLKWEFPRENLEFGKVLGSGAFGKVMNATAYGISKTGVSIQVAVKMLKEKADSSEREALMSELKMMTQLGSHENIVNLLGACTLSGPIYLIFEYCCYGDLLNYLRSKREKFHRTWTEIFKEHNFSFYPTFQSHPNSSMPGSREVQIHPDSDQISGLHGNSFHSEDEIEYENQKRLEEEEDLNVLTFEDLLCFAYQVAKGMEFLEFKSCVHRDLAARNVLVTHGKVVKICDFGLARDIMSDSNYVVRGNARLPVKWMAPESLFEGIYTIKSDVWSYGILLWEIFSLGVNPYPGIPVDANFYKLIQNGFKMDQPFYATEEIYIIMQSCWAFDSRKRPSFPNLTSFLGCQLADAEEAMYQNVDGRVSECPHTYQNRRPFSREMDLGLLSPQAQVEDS
methodDescription: FLT3 inhibition test (FLT3 enzyme inhibition, time-resolved fluorescence of substrate peptide phosphorylation)
Assay type: biochemical
recordedConditions: GST-fused human FLT3 (564 to 993 aa), ATP 50 μM; read-out: FLT3 (WT) enzyme inhibition activity
pIC50: −log10 of the molar value.
The reader will find reported pIC50 values listed item by item below.

# count of solved cases: 2
1) CCCNc1nc(Nc2ccc(C(N)=O)cc2)ncc1-c1ccc(CCNC(=O)CNC(=O)/C=C/CN(C)C)cc1 [Compound 16-3]; > 8.00
2) C[C@@H](C(=O)NCCCC#Cc1cnc(Nc2cccc(F)c2)nc1N1CCOCC1)N(C)C(=O)/C=C/CN(C)C [Compound 10-5]; > 8.00

Sure, the documented pIC50 for CCCNc1nc(Nc2nnc(C)s2)ncc1C#CCCCNC(=O)[C@H](C)N(C)C(=O)/C=C/CN(C)C [Compound 9-40] is 7.00 to 8.00

Given item CCCNc1nc(Nc2ccc(C#N)cc2)ncc1C#CCCCNC(=O)[C@@H]1C[C@@H](O)CN1C(=O)/C=C/CN(C)C [Compound 7-68] , the value recorded as its pIC50 is > 8.00

Measured pIC50 of C[C@@H](C(=O)NCCCC#Cc1cnc(Nc2ccnc(F)c2)nc1NC1CC1)N(C)C(=O)/C=C/CN(C)C [Compound 9-15] : > 8.00

====

measuredTarget: human FLT3 protein (FLT3 (WT)) (Homo sapiens)
Construct: human FLT3 protein (intracellular region, 564 to 993 aa); GST; purchased Carna Biosciences; host or cells: baculovirus expression system
methodDescription: FLT3 inhibition test (FLT3 enzyme inhibition, time-resolved fluorescence of substrate peptide phosphorylation)
Assay type: biochemical
recordedConditions: GST-fused human FLT3 (564 to 993 aa), ATP 50 μM; read-out: FLT3 (WT) enzyme inhibition activity
parameterMeasured: IC50

Look over these answered cases.
1) CCCN(CCC)c1nc(Nc2cccc(F)c2)ncc1C#CCCCNC(=O)[C@H](C)N(C)C(=O)/C=C/CN(C)C; < 10 nM
2) CC(C)CN(C)c1nc(Nc2ccc(C#N)cc2)ncc1C#CCCCNC(=O)[C@H](C)N(C)C(=O)/C=C/CN(C)C; < 10 nM

Just so you know, measured IC50 for CCCNc1nc(Nc2cccc(F)c2)ncc1C#CCCC(=O)NCCN(C)C(=O)/C=C/CN(C)C came out at 10 to 100 nM

====

measuredTarget: human FLT3 protein (FLT3 (WT)) (Homo sapiens)
Construct: human FLT3 protein (intracellular region, 564 to 993 aa); GST; purchased Carna Biosciences; host or cells: baculovirus expression system
methodDescription: FLT3 inhibition test (FLT3 enzyme inhibition, time-resolved fluorescence of substrate peptide phosphorylation)
Type: biochemical
recordedConditions: GST-fused human FLT3 (564 to 993 aa), ATP 50 μM; read-out: FLT3 (WT) enzyme inhibition activity
pIC50: −log10 of the molar value.
parameterMeasured: pIC50

Example results:
1. CCCNc1nc(Nc2ccc(C#N)cc2)ncc1C#CCCCNC(=O)[C@H](CO)N(C)C(=O)/C=C/CN(C)C; > 8.00
2. C[C@@H](C(=O)NCCCC#Cc1cnc(Nc2cccc(F)n2)nc1NC1CC1)N(C)C(=O)/C=C/CN(C)C; 7.00 to 8.00
3. C[C@@H](C(=O)NCCCC#Cc1cnc(Nc2ccc(C#N)cc2)nc1N1CCCC1)N(C)C(=O)/C=C/CN(C)C; > 8.00

// next item, pIC50 requested
// assay human FLT3 protein (FLT3 (WT)) (Homo sapiens), entry CCCNc1nc(Nc2ccc(F)c(F)c2)ncc1C#CCCCNC(=O)[C@H](C)N(C)C(=O)/C=C/CN(C)C , pIC50 value = > 8.00

====

measuredTarget: human FLT3 protein (FLT3 (WT)) (Homo sapiens, UniProt P36888)
Construct: human FLT3 protein (intracellular region, 564 to 993 aa); GST; purchased Carna Biosciences; host or cells: baculovirus expression system
Sequence (P36888 564-993): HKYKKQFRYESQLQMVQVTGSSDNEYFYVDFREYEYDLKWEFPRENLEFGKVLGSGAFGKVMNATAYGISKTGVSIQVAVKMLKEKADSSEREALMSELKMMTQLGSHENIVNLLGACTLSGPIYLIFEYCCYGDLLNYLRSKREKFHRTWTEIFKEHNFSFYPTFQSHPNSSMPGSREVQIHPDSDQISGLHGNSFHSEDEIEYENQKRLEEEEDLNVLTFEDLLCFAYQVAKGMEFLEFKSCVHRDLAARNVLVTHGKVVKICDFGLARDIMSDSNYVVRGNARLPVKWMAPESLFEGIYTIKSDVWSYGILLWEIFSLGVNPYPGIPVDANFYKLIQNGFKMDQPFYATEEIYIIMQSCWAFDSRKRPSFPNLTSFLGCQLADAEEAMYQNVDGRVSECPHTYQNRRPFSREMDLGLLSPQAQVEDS
methodDescription: FLT3 inhibition test (FLT3 enzyme inhibition, time-resolved fluorescence of substrate peptide phosphorylation)
Type: biochemical
recordedConditions: GST-fused human FLT3 (564 to 993 aa), ATP 50 μM; read-out: FLT3 (WT) enzyme inhibition activity
Entries and their measured IC50 follow.

1. CCCNc1nc(Nc2ccc(C#N)cc2)ncc1C#CCCCNC(=O)CN(C(=O)/C=C/CN(C)C)C(C)C [Compound 7-40]; < 10 nM
2. C=CC(=O)N(C)CC(=O)NCCCNC(=O)c1cnc(NC(=O)Nc2ccncc2)nc1NCCC [Compound 6-12]; < 10 nM
3. C[C@@H](C(=O)NCCC(C)(C)C#Cc1cnc(Nc2ccnc(F)c2)nc1NC1CC1)N(C)C(=O)/C=C/CN(C)C [Compound 9-20]; < 10 nM
4. CCCNc1nc(Nc2cccc(F)c2)ncc1C#C[C@H]1C[C@@H](NC(=O)[C@H](C)N(C)C(=O)/C=C/CN(C)C)C1 [Compound 13-8]; < 10 nM
5. CCCNc1nc(Nc2ccnc(OC)c2)ncc1C#C[C@H]1C[C@@H](NC(=O)[C@H](C)N(C)C(=O)/C=C/CN(C)C)C1 [Compound 14-6]; < 10 nM
6. C=CC(=O)N1CCC(NC(=O)c2cnc(NCCc3ccncc3)nc2NCCC)C1 (stereo not shown) [Compound 6-16]; 10 to 100 nM

Form: compound = CCCNc1nc(Nc2ccc(Cn3cncn3)cc2)ncc1C#CCCCNC(=O)CN(C)C(=O)/C=C/CN(C)C [Compound 12-11] ; IC50 = 10 to 100 nM

Recorded IC50 (compound C=CC(=O)Nc1cccc(CNC(=O)c2cnc(NCCc3ccncc3)nc2NCCC)c1 [Compound 2-26] ): 10 to 100 nM

Given item CCCNc1nc(Nc2cccc(F)c2)ncc1-c1cc(CCNC(=O)[C@H](C)N(C)C(=O)/C=C/CN(C)C)no1 [Compound 17-1] , the value recorded as its IC50 is < 10 nM

According to the records, this compound C=CC(=O)NCCCNC(=O)c1cnc(NCCc2ccncc2)nc1NCCC [Compound 2-21] displays IC50 of 10 to 100 nM
